B1: F1*; a variant is named by its letters at N, in order (parent)
chain: GAGACCGCAACTGAAAAGTTGTTATCNNNNNNNNAANNNNNTTNGNNGGGTTGAAGTTCTGCACGTAGAAGCAAAAGGC

- Variants of: B1
- Assay Comment: fraction ligated after 30 min (ligated reads / total reads); higher = more ligase activity
- Run Conditions: with F1*sub RNA substrate (template-directed ligation), 42 °C
Everything with fraction ligated lower than 0.8 is Not satisfied; everything else, including exactly 0.8, is Satisfied.

Some solved cases for reference:
* ACTTGTGTGCACTGAT | Satisfied
* ACTTGTGTGAACTGAT | Satisfied
* ATTGTCGTGACACTGT | Not satisfied
* ACTTGTGTGACCTGAT | Satisfied
* ACTGTCGTGACACTGT | Not satisfied

Incoming: API: above_or_equal(metric=fraction ligated, cutoff=0.8) for item `ACTTGCGTGAACTGAT`
Outgoing: Satisfied

Incoming: State whether the measured fraction ligated reaches 0.8, counting equality as reaching it, for `ACTGTCGTGCACTGAT`
Outgoing: Satisfied

Incoming: # bool: fraction ligated of `ACTTTCGTGACATGAT` >= 0.8
Outgoing: Satisfied
